Experiment: NCI Yeast Anticancer Drug Screen. Data for the bub3 strain (AID 167)
Condition info: S. cerevisiae bub3 mutant strain, at 50.0 µM, stronger effect = higher value
About 79,000 compounds went through this panel and 15% of them were active in at least one assay; those are over-represented in the sample as a whole.
growth inhibition below 90% gives false; growth inhibition at or above it gives true.

Compound	Category
COc1ccc2cc(Br)ccc2c1	false
Cn1ncc2c(NCc3ccc(Cl)cc3)nc(Cl)nc21	true
CCN(CC)CCCOC(=O)C(c1ccccc1)C1CCCCC1 (configuration not stated)	true
NN(c1ccccc1)c1cccc2ccccc12	false
COc1cccc2c1OC(c1ccc(Cl)cc1)C([N+](=O)[O-])=C2 (configuration not stated)	false
N=c1c2ccccc2cc2c3ccccc3ccn12	true
